Values compiled from paper PMC4266338.

biological target: CHOP; test: CHO-CHOP-luciferase reporter assay; type: cell-based, Chinese hamster; conditions: CHO-CHOP-luciferase cells; averaged from n ≥ 4 experiments
measurement_kind: UPR CHOP AC50 ± SEM

compound_string	result
O=C(Nc1ccc(S(=O)(=O)N2CCOCC2)cc1)c1ccc(Br)o1	loss of activity
O=C(Nc1ccc(S(=O)(=O)N2CCOCC2)cc1)c1ccco1	loss of activity
Cc1ccc(C(=O)Nc2ccc(S(=O)(=O)N3CCOCC3)cc2)o1	loss of activity
CC1(C)CCN(S(=O)(=O)c2ccc(NC(=O)c3ccc(C(F)(F)F)o3)cc2)CC1	loss of activity
